The entries below come with measured log10 IC50 values attached.
Target: human recombinant IL-17A (Homo sapiens)
Construct: purchased R&D Systems 7955-IL/CF
Sequence (Q16552 24-155): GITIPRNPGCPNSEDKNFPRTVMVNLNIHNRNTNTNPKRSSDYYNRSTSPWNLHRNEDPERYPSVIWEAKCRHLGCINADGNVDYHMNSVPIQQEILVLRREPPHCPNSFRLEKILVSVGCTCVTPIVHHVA
Experiment: IL-17A AlphaLISA assay (block binding of IL-17A to its receptor IL-17RA)
Settings: compounds pre-incubated with the IL-17A for 24 h at room temperature; read-out: AlphaLISA pIC50 (converted)
Values reflect log10 of reported IC50 (nM).

1) Cc1c[n+]([O-])cc(C)c1-c1ccc(NC(=O)[C@@H](NC(=O)c2ccnn2C)C(c2ccccc2)c2ccccc2)cc1 [Example 26]    0.90
2) Cc1c(-c2ccc(NC(=O)[C@@H](NC(=O)c3ccnn3C)[C@H]3CC[C@H](C)CC3)cc2F)ccc(=O)n1C [Example 83]    1.80
3) Cn1nccc1C(=O)N[C@H](C(=O)Nc1ccc(-c2ccncc2CO)cc1)C(c1ccccc1)c1ccccc1 [Example 42]    1.70
4) Cc1noc(C)c1-c1ccc(NC(=O)[C@@H](NC(=O)c2ccnn2C)[C@H]2CC[C@H](C)CC2)cc1 [Example 96]    1.70
5) Cc1c(-c2ccc(NC(=O)[C@@H](NC(=O)c3ccnn3C)C(c3ccccc3)c3ccccc3)nc2)ccc(=O)n1C [Example 72]    1.90

Problem: Missing value: log10 IC50, human recombinant IL-17A (Homo sapiens), entry CCn1nccc1C(=O)N[C@H](C(=O)Nc1ccc(-c2c(C)noc2C)c(F)c1)C(c1ccccc1)c1ccccc1 [Example 61] . Fill in?
Solution: 1.60

Problem: Next compound: Cc1cc(=O)n(C)cc1-c1ccc(NC(=O)[C@@H](NC(=O)c2ccnn2C)C(c2ccccc2)c2ccccc2)cc1 [Example 12]
Solution: 1.00

Problem: Next record, please: Cn1nccc1C(=O)N[C@H](C(=O)Nc1ccc(-c2cc[nH]c(=O)c2)c(F)c1)C(c1ccccc1)c1ccccc1 [Example 35]
Solution: 1.40

Problem: What do you get for Cn1nccc1C(=O)N[C@H](C(=O)Nc1ccc(C2(O)CCOCC2)cc1)[C@H]1CC[C@H](C)CC1 [Example 94] ?
Solution: 2.10

Problem: Please do the same for COc1cnccc1-c1c(F)cc(NC(=O)[C@@H](NC(=O)c2ccnn2C)C(c2ccccc2)c2ccccc2)cc1F [Example 30] as well.
Solution: 1.60

###

Target: human recombinant IL-17A (Homo sapiens)
Construct: purchased R&D Systems 7955-IL/CF
Sequence (Q16552 24-155): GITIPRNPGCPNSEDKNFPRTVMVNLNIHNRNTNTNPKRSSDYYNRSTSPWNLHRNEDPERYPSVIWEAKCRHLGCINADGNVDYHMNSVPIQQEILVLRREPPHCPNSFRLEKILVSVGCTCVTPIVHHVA
Assay: IL-17A AlphaLISA assay (block binding of IL-17A to its receptor IL-17RA)
Conditions: compounds pre-incubated with the IL-17A for 24 h at room temperature; read-out: AlphaLISA pIC50 (converted)
QUANTITY NAME: IC50 (µM)
Give the quantity in µM, number only.

Record excerpt, results attached:
1) COc1ncc(-c2ccc(NC(=O)[C@@H](NC(=O)c3ccnn3C)C(c3ccccc3)c3ccccc3)cc2)c2cc[nH]c12 [Example 76]    0.631
2) Cn1nccc1C(=O)N[C@H](C(=O)Nc1ccc(-c2ccncc2C(F)(F)F)cc1)C(c1ccccc1)c1ccccc1 [Example 5]    0.0631
3) CCn1nccc1C(=O)N[C@H](C(=O)Nc1ccc(-c2ccc(=O)n(C)c2C)cn1)[C@H]1CC[C@H](C)CC1 [Example 91]    0.251
4) Cn1nccc1C(=O)N[C@H](C(=O)Nc1ccc(-c2ccnc3c2CCC3)cc1)C(c1ccccc1)c1ccccc1 [Example 44]    0.251
5) Cn1nccc1C(=O)N[C@H](C(=O)Nc1ccc(-c2cnc3ncccn23)cc1)C(c1ccccc1)c1ccccc1 [Example 41]    0.2

Problem: Reported IC50, molecule COc1cnccc1-c1ccc(NC(=O)[C@@H](NC(=O)c2ccnn2C)C(c2ccc(F)cc2)c2ccc(F)cc2)cc1 [Example 19] : ____
Solution: 0.0631

Problem: What about this molecule? Cn1nccc1C(=O)N[C@H](C(=O)Nc1ccc(C2CCOCC2)cc1)[C@H]1CC[C@H](C)CC1 [Example 93]
Solution: 0.0501

Problem: Entry COc1cc(NC(=O)[C@@H](NC(=O)c2ccnn2C)C(c2ccccc2)c2ccccc2)ccc1-c1ccncc1CO [Example 53] please
Solution: 0.251

Problem: Next molecule: COc1c[n+]([O-])cc(F)c1-c1ccc(NC(=O)[C@@H](NC(=O)c2ccnn2C)C(c2ccccc2)c2ccccc2)cc1 [Example 28]
Solution: 0.00794

Problem: Another: COc1cncc(F)c1-c1ccc(NC(=O)[C@@H](NC(=O)c2ccnn2C)C(c2ccccc2)c2ccccc2)cc1F [Example 18]
Solution: 0.0316

Problem: Now give it for COc1cncc(OC)c1-c1ccc(NC(=O)[C@@H](NC(=O)c2ccnn2C)C(c2ccccc2)c2ccccc2)cc1 [Example 9] too.
Solution: 0.00631

Problem: Continue with Cn1nccc1C(=O)N[C@H](C(=O)Nc1ccc(-c2c[nH]c(=O)c3cccnc23)c(F)c1)C(c1ccccc1)c1ccccc1 [Example 66]
Solution: 0.0251

Problem: Now consider Cn1nccc1C(=O)N[C@H](C(=O)Nc1ccc(-c2cccc3nccn23)cc1)[C@H]1CC[C@H](C)CC1 [Example 88] .
Solution: 0.398

Problem: Let us now turn to Cc1c(-c2ccc(NC(=O)[C@@H](NC(=O)c3ccnn3C)C(c3ccccc3)c3ccccc3)cc2C(F)(F)F)ccc(=O)n1C [Example 54]
Solution: 0.316

Problem: Repeat for the following molecule: Cn1nccc1C(=O)N[C@H](C(=O)Nc1ccc(-c2ccc(=O)[nH]c2)cc1)C(c1ccccc1)c1ccccc1 [Example 49]
Solution: 0.1

Problem: Entry Cc1cncc(C)c1-c1ccc(NC(=O)[C@@H](NC(=O)c2ccnn2C)C(c2ccccc2)c2ccccc2)cc1Cl [Example 55] please
Solution: 0.1
